# measuredTarget: TLX LBD (Homo sapiens (Human), UniProt Q9Y466)
# Sequence (Q9Y466 155-383): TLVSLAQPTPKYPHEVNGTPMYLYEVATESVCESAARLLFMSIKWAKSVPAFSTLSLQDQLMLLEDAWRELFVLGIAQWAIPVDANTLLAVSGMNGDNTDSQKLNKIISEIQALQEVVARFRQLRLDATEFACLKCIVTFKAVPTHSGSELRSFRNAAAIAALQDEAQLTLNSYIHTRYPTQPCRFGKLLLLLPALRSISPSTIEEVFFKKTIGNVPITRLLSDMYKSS
# assayName: ALPHA screen assay for TLX LBD and coactivator peptide recruitment
# assayConditions: Table 3
pEC50: −log10 of the molar value.
Below, each of the molecules is paired with its reported pEC50 value.
resultType: pEC50

- chemSmiles: "CC(C)CCNc1ncccc1C(=O)N1CCN(CCC2CCN(C(=O)OC(C)(C)C)CC2)C[C@H]1C"
  observed: 11.04
- chemSmiles: "CC(C)CCNc1ncccc1C(=O)N1CCN(Cc2ccccc2)C[C@@H]1C"
  observed: 10.53
- chemSmiles: "CCCCN1CCN(C(=O)c2cccnc2NCCC(C)C)[C@H](C)C1"
  observed: 10.48
- chemSmiles: "CC(C)CCNc1ncccc1C(=O)N1CCN(Cc2ccccc2)C[C@H]1C"
  observed: 10.55
- chemSmiles: "CCCCCCN1CCN(C(=O)c2cccnc2NCCC(C)C)[C@@H](C)C1"
  observed: 10.90
- chemSmiles: "CC(C)CCNc1ncccc1C(=O)N1CCN(CCCc2ccccc2)C[C@@H]1C"
  observed: 10.89
- chemSmiles: "COC(=O)C[C@@H]1CN(Cc2ccccc2)[C@H](C)CN1C(=O)c1cccnc1NCCC(C)C"
  observed: 11.10
- chemSmiles: "COc1cccc(CN2CCN(C(=O)c3cccnc3NCCC(C)C)[C@@H](C)C2)c1"
  observed: 10.56
- chemSmiles: "CC(C)CCNc1ncccc1C(=O)N1CCN(Cc2ccccc2)C[C@@H]1CC(C)C"
  observed: 11.52
